- system: Human IP6K1 (Homo sapiens)
- Construct: GST (N, cleaved yes); made in house; host or cells: C43 E. coli, pGEX-6P-2
- protocol-notes: IP6K1 high-throughput screen of the Sigma LOPAC (ADP-Glo Max, single point);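 also: final compound concentration 10µM in 5% DMSO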
- Type: biochemical
- reported-conditions: LOPAC single-point screen, ADP-Glo Max raw signal per well
Structures can show the parent of a compound that is named as a salt.
experimental-readout: Raw Signal

{"compound": "Br.CCSC(=N)N [S-Ethylisothiourea hydrobromide]", "system": "Human IP6K1 (Homo sapiens)", "experimental-readout": "Raw Signal", "numeric-value": 55596}
{"compound": "CC1CN(S(=O)(=O)c2cccc3cnccc23)CCN1.Cl.Cl (stereo not drawn)", "system": "Human IP6K1 (Homo sapiens)", "experimental-readout": "Raw Signal", "numeric-value": 53944}
{"compound": "NC(=NCc1ccccc1)NC(=O)c1nc(Cl)c(N)nc1N [Benzamil hydrochloride]", "system": "Human IP6K1 (Homo sapiens)", "experimental-readout": "Raw Signal", "numeric-value": 59018}
{"compound": "Cl.O=C(CCCN1CCC2(CC1)C(=O)N(CCc1ccc(N=C=S)cc1)CN2c1ccccc1)c1ccc(F)cc1", "system": "Human IP6K1 (Homo sapiens)", "experimental-readout": "Raw Signal", "numeric-value": 54409}
{"compound": "Cc1nnc(SCC2=C(C(=O)O)N3C(=O)[C@@H](NC(=O)Cn4cnnn4)[C@H]3SC2)s1 [Cefazolin sodium]", "system": "Human IP6K1 (Homo sapiens)", "experimental-readout": "Raw Signal", "numeric-value": 59148}
{"compound": "CCCCCCCCCCCCCCCCCC(=O)OC(CC(=O)O)C[N+](C)(C)C.[Cl-] (racemic) [DL-Stearoylcarnitine chloride]", "system": "Human IP6K1 (Homo sapiens)", "experimental-readout": "Raw Signal", "numeric-value": 55265}
{"compound": "CC[C@]1(O)C[C@@H]2CN(CCc3c([nH]c4ccccc34)[C@@](C(=O)OC)(c3cc4c(cc3OC)N(C)[C@H]3[C@@](O)(C(=O)OC)[C@H](OC(C)=O)[C@]5(CC)C=CCN6CC[C@]43[C@@H]65)C2)C1.O=S(=O)(O)O [Vinblastine sulfate salt]", "system": "Human IP6K1 (Homo sapiens)", "experimental-readout": "Raw Signal", "numeric-value": 55305}
{"compound": "COc1cc(CNC(=O)CCCCCCC(C)C)ccc1O [Dihydrocapsaicin]", "system": "Human IP6K1 (Homo sapiens)", "experimental-readout": "Raw Signal", "numeric-value": 52937}
{"compound": "C[C@](N)(CCP(=O)(O)O)C(=O)O.Cl [(S)-MAP4 hydrochloride]", "system": "Human IP6K1 (Homo sapiens)", "experimental-readout": "Raw Signal", "numeric-value": 53240}

###

Each record here notes measured Z-score.
- system: Human IP6K1 (Homo sapiens, UniProt Q92551)
- Construct: GST (N, cleaved yes); made in house; host or cells: C43 E. coli, pGEX-6P-2
- Sequence (Q92551 whole entry): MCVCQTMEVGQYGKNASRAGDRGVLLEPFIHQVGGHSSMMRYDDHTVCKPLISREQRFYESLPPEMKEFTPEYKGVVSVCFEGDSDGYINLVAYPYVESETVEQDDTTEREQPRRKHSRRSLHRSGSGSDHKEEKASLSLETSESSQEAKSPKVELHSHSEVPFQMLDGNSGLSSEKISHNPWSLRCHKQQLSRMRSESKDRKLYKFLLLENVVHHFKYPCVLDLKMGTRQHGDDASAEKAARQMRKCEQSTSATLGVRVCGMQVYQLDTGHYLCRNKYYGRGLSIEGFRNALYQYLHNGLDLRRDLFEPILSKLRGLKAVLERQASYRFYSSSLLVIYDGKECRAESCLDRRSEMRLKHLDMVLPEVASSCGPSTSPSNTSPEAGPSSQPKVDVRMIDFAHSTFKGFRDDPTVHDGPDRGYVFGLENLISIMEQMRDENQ
- protocol-notes: IP6K1 high-throughput screen of the Sigma LOPAC (ADP-Glo Max, single point);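 also: final compound concentration 10µM in 5% DMSO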
- Format: biochemical
- reported-conditions: LOPAC single-point screen; Z-score from raw signal with plate average and StDev
Counter-ions that a name gives are not always drawn.

{"compound": "CC(N)c1cccc(Cl)c1Cl.Cl (racemic)", "system": "Human IP6K1 (Homo sapiens, UniProt Q92551)", "Z-score": -0.2019}
{"compound": "O=C([O-])c1cc2cc(Cc3cccnc3)ccc2o1.[Na+] [Furegrelate sodium]", "system": "Human IP6K1 (Homo sapiens, UniProt Q92551)", "Z-score": -0.4009}
{"compound": "Nc1ncnc2c1c(-c1ccc(Oc3ccccc3)cc1)cn2C1CCCC1", "system": "Human IP6K1 (Homo sapiens, UniProt Q92551)", "Z-score": -0.2551}
{"compound": "CC(=O)[C@H]1CC[C@H]2[C@@H]3CCC4=CC(=O)CC[C@]4(C)[C@H]3CC[C@]12C", "system": "Human IP6K1 (Homo sapiens, UniProt Q92551)", "Z-score": -0.1227}
{"compound": "Clc1ccc(C(c2ccc(Cl)cc2)n2cc[n+](CC(OCc3ccc(Cl)cc3Cl)c3ccc(Cl)cc3Cl)c2)cc1 (stereo not shown) [Calmidazolium chloride]", "system": "Human IP6K1 (Homo sapiens, UniProt Q92551)", "Z-score": -0.1004}
{"compound": "CC(C)COC(=O)OCN1C(=O)CN(CCN2CC(=O)N(COC(=O)OCC(C)C)C(=O)C2)CC1=O", "system": "Human IP6K1 (Homo sapiens, UniProt Q92551)", "Z-score": -0.3761}
{"compound": "COc1ccc(C(=O)N2CCCC2=O)cc1", "system": "Human IP6K1 (Homo sapiens, UniProt Q92551)", "Z-score": -0.3313}
{"compound": "N[C@@H](C(=O)N[C@@H]1C(=O)N2C(C(=O)O)=C(Cl)CS[C@H]12)c1ccccc1", "system": "Human IP6K1 (Homo sapiens, UniProt Q92551)", "Z-score": -0.133}
{"compound": "CC[C@H]1CN2CCc3cc(OC)c(OC)cc3[C@@H]2C[C@@H]1C[C@H]1NCCc2cc(OC)c(OC)cc21 [Emetine dihydrochloride hydrate]", "system": "Human IP6K1 (Homo sapiens, UniProt Q92551)", "Z-score": -0.4405}
{"compound": "CCCCCCCC/C=C\\CCCCCCCC(=O)O", "system": "Human IP6K1 (Homo sapiens, UniProt Q92551)", "Z-score": -0.09485}
{"compound": "NNCc1cccc(O)c1 [3-Hydroxybenzylhydrazine dihydrochloride]", "system": "Human IP6K1 (Homo sapiens, UniProt Q92551)", "Z-score": -0.3203}
{"compound": "O=C(O)CCC(=O)N1CCC[C@H]1C(=O)O", "system": "Human IP6K1 (Homo sapiens, UniProt Q92551)", "Z-score": -0.102}
{"compound": "C=CCN1CC[C@]23CCCC[C@H]2[C@H]1Cc1ccc(O)cc13 [Levallorphan tartrate]", "system": "Human IP6K1 (Homo sapiens, UniProt Q92551)", "Z-score": -0.3111}
{"compound": "COC(=O)N1CCN(C(=O)Cc2ccc(Cl)c(Cl)c2)C(CN2CCCC2)C1.O=C(O)/C=C/C(=O)O (stereo not shown) [GR-89696 fumarate]", "system": "Human IP6K1 (Homo sapiens, UniProt Q92551)", "Z-score": -0.1477}
{"compound": "C[C@]12CC[C@H](O)CC1=CC[C@@H]1[C@@H]2CC[C@]2(C)C(=O)CC[C@@H]12 [trans-Dehydroandrosterone]", "system": "Human IP6K1 (Homo sapiens, UniProt Q92551)", "Z-score": -0.2407}
{"compound": "COc1ccc2[nH]cc(CCNC(C)=O)c2c1", "system": "Human IP6K1 (Homo sapiens, UniProt Q92551)", "Z-score": -0.1582}
{"compound": "COc1ccc2c(c1)CC[C@@H]1[C@@H]2CC[C@]2(C)[C@@H](NCCCCCCN3C(=O)C=CC3=O)CC[C@@H]12", "system": "Human IP6K1 (Homo sapiens, UniProt Q92551)", "Z-score": -0.1628}
{"compound": "O=C(C1CCCCC1)N1CC(=O)N2CCc3ccccc3C2C1 (stereo not shown)", "system": "Human IP6K1 (Homo sapiens, UniProt Q92551)", "Z-score": -0.1083}
{"compound": "C[N+]1(C)CCOC(O)(c2ccc(-c3ccc(C4(O)C[N+](C)(C)CCO4)cc3)cc2)C1 (stereo not shown)", "system": "Human IP6K1 (Homo sapiens, UniProt Q92551)", "Z-score": -0.115}
{"compound": "COC(=O)c1c(-c2cc(OC)c(OC)c(OC)c2)c2ccc(OCc3ccccn3)cc2c(=O)n1-c1ccc(N)cc1.O=S(=O)(O)O", "system": "Human IP6K1 (Homo sapiens, UniProt Q92551)", "Z-score": -0.1226}
{"compound": "N#CC(=C(/N)Sc1ccccc1N)/C(C#N)=C(/N)Sc1ccccc1N", "system": "Human IP6K1 (Homo sapiens, UniProt Q92551)", "Z-score": -0.134}
{"compound": "Cn1cc(C(=O)OCC2CCN(CCNS(C)(=O)=O)CC2)c2ccccc21", "system": "Human IP6K1 (Homo sapiens, UniProt Q92551)", "Z-score": -0.288}
{"compound": "N[C@@H](Cn1cc(I)c(=O)[nH]c1=O)C(=O)O", "system": "Human IP6K1 (Homo sapiens, UniProt Q92551)", "Z-score": -0.1958}
{"compound": "C[C@](N)(CCP(=O)(O)O)C(=O)O.Cl [(S)-MAP4 hydrochloride]", "system": "Human IP6K1 (Homo sapiens, UniProt Q92551)", "Z-score": -0.1938}
{"compound": "Br.COc1ccc2c(c1)[C@]13CCCC[C@@H]1[C@H](C2)N(C)CC3.O", "system": "Human IP6K1 (Homo sapiens, UniProt Q92551)", "Z-score": -0.1769}
{"compound": "CN1[C@@H]2CC[C@H]1C[C@@H](OC(=O)c1cc(Cl)cc(Cl)c1)C2 [3-Tropanyl-3,5-dichlorobenzoate]", "system": "Human IP6K1 (Homo sapiens, UniProt Q92551)", "Z-score": -0.4171}
{"compound": "NNc1nncc2ccccc12 [Hydralazine hydrochloride]", "system": "Human IP6K1 (Homo sapiens, UniProt Q92551)", "Z-score": -0.2669}
{"compound": "Cl.O=C(OC1CCN(CCCl)CC1)C(c1ccccc1)c1ccccc1", "system": "Human IP6K1 (Homo sapiens, UniProt Q92551)", "Z-score": -0.1621}
